biological target: HIF-1α (Homo sapiens); construct: endogenous in cells; host or cells: ARPE-19 (ATCC CRL-2302); assay: Analysis of HIF-1α protein expression (Western blot) in ARPE-19 cells under mixed hypoxic condition; format: cell-based; settings: mixed hypoxic condition (1% oxygen + CoCl2) for 1 hour, concentration range at which HIF-1α expression is reduced by 50% vs untreated control, read-out: IC50 HIF-1α Hypoxia (1 hour)
Sequence (Q16665 whole entry): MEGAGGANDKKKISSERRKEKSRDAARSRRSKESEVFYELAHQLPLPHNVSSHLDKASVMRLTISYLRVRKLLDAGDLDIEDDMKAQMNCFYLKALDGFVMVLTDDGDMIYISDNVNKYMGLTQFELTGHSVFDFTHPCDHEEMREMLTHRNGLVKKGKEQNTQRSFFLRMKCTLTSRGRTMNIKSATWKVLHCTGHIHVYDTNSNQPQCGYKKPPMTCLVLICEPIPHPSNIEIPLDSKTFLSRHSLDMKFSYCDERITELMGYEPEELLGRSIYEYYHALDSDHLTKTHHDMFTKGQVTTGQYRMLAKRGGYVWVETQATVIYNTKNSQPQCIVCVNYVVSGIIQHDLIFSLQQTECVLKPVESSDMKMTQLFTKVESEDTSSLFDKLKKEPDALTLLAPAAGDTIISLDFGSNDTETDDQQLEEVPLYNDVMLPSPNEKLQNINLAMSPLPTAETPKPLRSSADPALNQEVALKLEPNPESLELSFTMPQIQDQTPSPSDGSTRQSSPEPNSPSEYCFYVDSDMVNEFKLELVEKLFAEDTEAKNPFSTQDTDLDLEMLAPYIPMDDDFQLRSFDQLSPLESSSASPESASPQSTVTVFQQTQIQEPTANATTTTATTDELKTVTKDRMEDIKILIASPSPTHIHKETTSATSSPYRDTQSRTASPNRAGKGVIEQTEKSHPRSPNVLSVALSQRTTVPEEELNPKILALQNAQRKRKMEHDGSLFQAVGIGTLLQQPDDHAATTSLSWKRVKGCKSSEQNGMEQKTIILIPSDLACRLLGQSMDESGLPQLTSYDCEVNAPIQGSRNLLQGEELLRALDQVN
Readout label: DC50

Kindly note the recorded DC50 for O=C(NCc1cc(F)cc(-c2cnn(C(F)(F)F)c2)c1)c1ncnc2nc(C3CCCC3)[nH]c12 , which is < 100 nM

Kindly note the recorded DC50 for CC(C)N1CCC[C@H]1c1nc2ncnc(C(=O)NCc3cc(F)cc(-c4cnn(C)c4)c3)c2[nH]1 , which is 1000 to 10000 nM

Kindly note the recorded DC50 for O=C(NCc1cc(F)cc(Nc2ccc(C(F)(F)F)cc2)c1)c1ncnc2nc(C3CCCC3)[nH]c12 , which is < 100 nM

Kindly note the recorded DC50 for CN1CCC[C@@H]1c1nc2ncnc(C(=O)NCc3cc(F)cc(-c4cnn(C)c4)c3)c2[nH]1 , which is < 100 nM

Kindly note the recorded DC50 for O=C(NCc1cc(F)cc(-c2cnn(-c3ccc(F)cc3)c2)c1)c1nc(Cl)nc2nc(C3CCCC3)[nH]c12 , which is 100 to 1000 nM

Kindly note the recorded DC50 for O=C(NCc1cc(F)cc(Nc2cccc(C(F)(F)F)c2)c1)c1ncnc2nc(C3CCCC3)[nH]c12 , which is < 100 nM

Kindly note the recorded DC50 for O=C(NCc1cc(F)cc(-c2ccn(-c3ccc(F)cc3)n2)c1)c1ncnc2nc(C3CCCC3)[nH]c12 , which is < 100 nM

Kindly note the recorded DC50 for COc1ccccc1Nc1cc(F)cc(CNC(=O)c2ncnc3nc(C4CCCC4)[nH]c23)c1 , which is < 100 nM
